assay: Selectivity index, ratio of IC50 for human KB cells to IC50 for Plasmodium falciparum K1; assay type: toxicity, cell-based; details: KB cells (cytotoxicity) versus Plasmodium falciparum K1, read-out: Selectivity Index
measured-parameter: selectivity ratio

Example cases with answers are listed next.
COC1=C[C@@H](C)[C@@H]2C[C@H]3OC=C[C@H]4C(C)=C(OC)C(=O)[C@H]([C@@]2(C)C1=O)[C@@]34C [ANHYDROQUASSIN] = > 1
COC1=C[C@@H](C)[C@@H]2C[C@H]3OC(=O)C[C@H]4C(C)=C(OC)C(=O)[C@H]([C@@]2(C)C1=O)[C@@]34C [QUASSIN] = > 1

// next item, selectivity ratio requested
Identify measured selectivity ratio associated with COC1=C[C@@H](C)[C@@H]2C[C@H]3OC(=O)[C@H](O)[C@H]4C(C)=C(OC)C(=O)[C@H]([C@@]2(C)C1=O)[C@]43C
> 1.1

The measured values listed here are drawn from ChEMBL document CHEMBL1147250.
